System: LOC_OS03G50810-cb003
assay_notes: thermal shift delta Tm vs DMSO control; higher = stronger stabilization (binding);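 also: purified Escherichia coli-expressed rice kinase domain construct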
assay_context: 12.5 µM; protein concentration 2 µM
endpoint: thermal shift delta Tm (°C)
Your answer should be a plain number; it is taken to be in °C.

Problem: Recorded thermal shift delta Tm for CCN1CCN(Cc2ccc(Nc3ncc(F)c(-c4cc(F)c5nc(C)n(C(C)C)c5c4)n3)nc2)CC1 , please?
Result: 2.97

Problem: Please look up its thermal shift delta Tm: COc1cc2nccc(Oc3ccc(NC(=O)Nc4cc(C)on4)c(Cl)c3)c2cc1OC
Result: 2.67

Problem: thermal shift delta Tm for NC[C@@](O)(c1ccc(Cl)cc1)c1ccc(-c2cn[nH]c2)cc1 ?
Result: 0.36

Problem: Any idea what thermal shift delta Tm was measured for O=C(O)c1ccc2c(c1)nc(Nc1cccc(Cl)c1)c1ccncc12 ?
Result: 1.55

Problem: What value of thermal shift delta Tm has been reported for the following molecule? O=C(Nc1ccccc1C(=O)NC1CCCCNC1=O)c1cc2ccccc2s1 (centres undefined)
Result: 0.43

Problem: What value of thermal shift delta Tm has been recorded for this entry: c1ccc(-c2[nH]ncc2-c2ccnc3ccccc23)nc1
Result: 0.28

Problem: thermal shift delta Tm for O=c1cc(N2CCOCC2)oc2c1ccc1ccccc12 ?
Result: 0.29

Problem: Endpoint output: thermal shift delta Tm of C[C@@H]1COC(Nc2ccc3ncnc(Nc4ccc(OCc5nccs5)c(Cl)c4)c3c2)=N1 . Value?
Result: 0.41

Problem: Record request: thermal shift delta Tm value, item C[C@@H](N)[C@H]1CC[C@H](C(=O)Nc2ccncc2)CC1
Result: 0.21

----------
Would you kindly list thermal shift delta Tm for each of these compounds?
Test system: LOC_OS07G06570-cb004
assay_notes: thermal shift delta Tm vs DMSO control; higher = stronger stabilization (binding)
assay_context: 12.5 µM; protein concentration 2 µM
Where a name gives a salt, the structure may show the parent alone.
Expressed in °C, but write only the number.

Problem: What measured thermal shift delta Tm goes with CN(C)CCOc1ccc(-c2nc(-c3ccncc3)c(-c3ccc4c(c3)CC/C4=N\O)[nH]2)cc1 ?
Result: 0.49

Problem: Which thermal shift delta Tm reading was recorded for the compound O=C1NC(=O)/C(=C/c2cccc(C(F)(F)F)c2)S1 ?
Result: 0.68

Problem: Quick check: thermal shift delta Tm of Cc1[nH]c(/C=C2\C(=O)Nc3ccc(S(=O)(=O)N(C)c4cccc(Cl)c4)cc32)c(C)c1C(=O)N1CCN(C)CC1 ?
Result: 0.23

Problem: Give the measured thermal shift delta Tm of Cc1nc(NC(=O)N2CCC[C@H]2C(N)=O)sc1-c1ccnc(C(C)(C)C(F)(F)F)c1 [Alpelisib (BYL719)] .
Result: 1.48

Problem: Would you mind telling me what thermal shift delta Tm value was observed for C[C@@H]1COCCN1c1cc(C2([S@](C)(=N)=O)CC2)nc(-c2cc[nH]c3nccc2-3)n1 ?
Result: 0.71

Problem: Reported thermal shift delta Tm for Cc1cc(Nc2cc(Cl)nc(Oc3ccc([N+](=O)[O-])cc3)n2)n[nH]1 [Autophinib] : what is it?
Result: 1.89

Problem: Which value of thermal shift delta Tm has been reported for CNC(=O)c1cc(Oc2ccc(NC(=O)Nc3ccc(Cl)c(C(F)(F)F)c3)cc2)ccn1 [Sorafenib] in the records?
Result: 1

Problem: Report thermal shift delta Tm for CN1C(=O)[C@@H](NC(=O)c2n[nH]c(Cc3ccccc3)n2)COc2ccccc21 please.
Result: 1.77

Problem: What value of measured thermal shift delta Tm is listed for N[C@@H]1CCCN(c2c(/C=C3\SC(=O)NC3=O)cccc2-c2ccccc2)C1 ?
Result: 1.48

Problem: Reported thermal shift delta Tm, compound Cc1ncc(-c2ccnc(Nc3ccc(S(C)(=O)=O)cc3)n2)n1C(C)C : ____
Result: 0.69

Problem: Given CCOc1ccn(-c2ccc(F)cc2)c(=O)c1C(=O)Nc1ccc(Oc2ccnc(N)c2Cl)c(F)c1 , state its recorded thermal shift delta Tm.
Result: 0.64

Problem: What does the data say about its thermal shift delta Tm? Entry: O=C(NCCCNc1nc(Nc2cccc(NC(=O)N3CCCC3)c2)ncc1I)c1cccs1
Result: 0.51

Problem: # thermal shift delta Tm lookup, item Cc1ncc(CCCN(C)C)cc1Nc1ncc2c(n1)-c1ccc(C(F)(F)F)cc1NC(=S)C2
Result: 1.65

Problem: GET /values?readout=thermal shift delta Tm&item= O=C(O)[C@]1(Cc2cccc(Nc3nccs3)n2)CC[C@@H](Oc2cccc(Cl)c2F)CC1
Result: 0.16

Problem: Reported thermal shift delta Tm, compound O=C(Nc1cccc(C(F)(F)F)c1)c1cccc2cc(Oc3cc(CO)ncn3)ccc12 : ____
Result: 0.98

Problem: Which thermal shift delta Tm value belongs to CCCCCCCCc1ccc(CCC(N)(CO)CO)cc1 [Fingolimod (FTY720) HCl] ?
Result: 0.28

Problem: Reported thermal shift delta Tm for Cc1cc(O)c2c(c1)C(=O)c1cccc(O)c1C2=O [Chrysophanic Acid] : what is it?
Result: 1.81

Problem: # input compound: CNC(=O)c1cc(Oc2ccc(NC(=O)Nc3ccc(Cl)c(C(F)(F)F)c3)c(F)c2)ccn1 [Regorafenib (BAY 73-4506)] ; wanted: its thermal shift delta Tm
Result: 0.59

----------
System: LOC_OS03G27990-cb004
assay_notes: thermal shift delta Tm vs DMSO control; higher = stronger stabilization (binding)
assay_context: 12.5 µM; protein concentration 2 µM
Decide using thermal shift delta Tm: a value greater than or equal to 0.5 °C is fulfilled, a smaller one is not fulfilled.

Problem: Check if thermal shift delta Tm >= 0.5 °C (inclusive). Item: N#Cc1cccc(-c2c[nH]c3ncnc(N4CCOCC4)c23)c1
Result: not fulfilled

Problem: # check: thermal shift delta Tm of O=S(=O)(c1cccc2c(I)cccc12)N1CCCNCC1 is greater than or equal to 0.5 °C
Result: not fulfilled

Problem: Decide: is the reported value of thermal shift delta Tm for Cc1cc(Nc2nc(N[C@@H](C)c3ncc(F)cn3)ncc2Cl)[nH]n1 equal to or greater than 0.5 °C?
Result: fulfilled

Problem: Hi team, for Cn1ncc(Cl)c1-c1cc(C(=O)N[C@H](CN)Cc2ccc(F)c(F)c2)oc1Cl , is the recorded thermal shift delta Tm at or above 0.5 °C?
Result: not fulfilled

Problem: Reported thermal shift delta Tm reaches at least 0.5 °C for NC1(c2ccc(-c3nc4ccn5c(=O)[nH]nc5c4cc3-c3ccccc3)cc2)CCC1 ?
Result: fulfilled

Problem: Form field: thermal shift delta Tm at least 0.5 °C? Entry: C=CC(=O)Nc1cccc(Oc2nc(Nc3ccc(N4CCN(C)CC4)cc3)nc3ccsc23)c1
Result: fulfilled

Problem: Textbook exercise: given the entry Cn1cc(-c2cnn3c(N)c(Br)c([C@@H]4CCCNC4)nc23)cn1 , state whether its thermal shift delta Tm is greater than or equal to 0.5 °C.
Result: fulfilled

Problem: // inclusive: thermal shift delta Tm at least 0.5 °C? input: N#C/C(=C(/N)Sc1ccc(N)cc1)c1ccccc1C(F)(F)F
Result: not fulfilled

Problem: In plain terms: is recorded thermal shift delta Tm at least 0.5 °C for O=C(O)CCC(=O)Nc1ccc(Br)cn1 [Bikinin] ?
Result: not fulfilled

----------
I'd appreciate it if you could supply thermal shift delta Tm values for the items below.
Tested on: LOC_OS05G30820-cb001
assay_notes: thermal shift delta Tm vs DMSO control; higher = stronger stabilization (binding)
assay_context: 12.5 µM; protein concentration 2 µM
Give the quantity in °C, number only.

Problem: Form entry - test system: LOC_OS05G30820-cb001; read-out: thermal shift delta Tm; compound: C=CC(=O)Nc1cccc(Oc2nc(Nc3ccc(N4CCN(C)CC4)cc3)ncc2Cl)c1
Result: 1.14

Problem: Observed thermal shift delta Tm on LOC_OS05G30820-cb001 for Cc1ccc(F)c(NC(=O)Nc2ccc(-c3cccc4[nH]nc(N)c34)cc2)c1 [Linifanib (ABT-869)] , please.
Result: 0.85

Problem: So what thermal shift delta Tm did Cc1nc(N)sc1-c1ccnc(Nc2ccc(N3CCOCC3)cc2)n1 get with LOC_OS05G30820-cb001?
Result: 0.56

Problem: Observed thermal shift delta Tm on LOC_OS05G30820-cb001 for C=CC(=O)Nc1ccc(CN2C(=O)N(c3cc(OC)cc(OC)c3)Cc3cnc(Nc4ccc(N5CCN(C)CC5)cc4)nc32)cc1 , please.
Result: 0.78

Problem: Entry COc1ccc2[nH]cc(/C=C3\C(=O)Nc4ccc(NC(=O)CCN5CCCCC5)cc43)c2c1 , system LOC_OS05G30820-cb001: what thermal shift delta Tm was measured?
Result: 0.68

Problem: Hello, I am looking for reported thermal shift delta Tm with LOC_OS05G30820-cb001 for CCc1cc(Nc2nccc(-c3c(-c4ccc(OC)c(C(=O)Nc5c(F)cccc5F)c4)nc4ccccn34)n2)c(OC)cc1N1CCC(N2CCN(S(C)(=O)=O)CC2)CC1 . Could you help?
Result: 0.41

Problem: Notebook entry, LOC_OS05G30820-cb001 assay: thermal shift delta Tm of N[C@@H]1CCCN(c2c(/C=C3\SC(=O)NC3=O)cccc2-c2ccccc2)C1 = ?
Result: 0.34

Problem: Recorded thermal shift delta Tm for CCN(C)S(=O)(=O)Nc1ccc(F)c(C(=O)c2c[nH]c3ncc(-c4cnc(C5CC5)nc4)cc23)c1F with LOC_OS05G30820-cb001, please?
Result: 0.45
